molecular target: UniProt P11712; test: Cytochrome P450 inhibition, Protocol A, cDNA expressed proteins, fluorogenic substrate; assay type: in vitro ADME; conditions: % inhibition at 10 μM; substrate MFC; cDNA expressed protein
Sequence (P11712 whole entry): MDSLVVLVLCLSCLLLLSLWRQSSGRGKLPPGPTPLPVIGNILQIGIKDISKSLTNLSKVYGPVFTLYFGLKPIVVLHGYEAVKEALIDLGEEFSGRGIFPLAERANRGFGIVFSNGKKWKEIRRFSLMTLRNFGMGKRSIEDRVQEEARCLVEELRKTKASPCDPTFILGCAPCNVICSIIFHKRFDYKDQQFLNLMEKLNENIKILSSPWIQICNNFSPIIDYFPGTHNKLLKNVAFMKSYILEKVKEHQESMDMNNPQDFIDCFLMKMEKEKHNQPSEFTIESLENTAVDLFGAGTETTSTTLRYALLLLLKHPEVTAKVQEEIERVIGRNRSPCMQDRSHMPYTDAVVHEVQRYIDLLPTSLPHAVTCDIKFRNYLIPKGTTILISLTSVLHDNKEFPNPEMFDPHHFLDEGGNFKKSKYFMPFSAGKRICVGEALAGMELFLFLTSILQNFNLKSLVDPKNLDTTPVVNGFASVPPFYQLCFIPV
PARAMETER: hCYP2C9_MFC_Pct_Inh

Consider the following illustrative entries.
CC(=O)c1ccc(C2=NCc3c(Cl)ccc(Cl)c3-n3cccc32)cc1
45%
CC(=O)c1ccc(C2=NCc3c(F)cccc3-n3cccc32)cc1
43%

Then this compound:
Reading of hCYP2C9_MFC_Pct_Inh for CC(=O)c1ccc(C2=NCc3ccc(Cl)cc3-n3cccc32)cc1 [drawing 86] with UniProt P11712: 69%

* * *

tested on: Sporothrix schenkii B62482; assay: Antifungal activity in vitro (resazurin susceptibility screen), Inf. A; format: cell-based; conditions: Sporothrix, B62482, Sporothrix schenkii B62482; 27 °C, 4 days, resa time 24 hours; highest in-test concentration 64 μM; read-out: Inf. A pIC50 (converted)
PARAMETER: IC50 (µM)
The response must be a number in µM with no trailing unit.

CC(=O)c1ccc(C2NCc3cc(Cl)cc(Cl)c3-n3cccc32)cc1.Cl (stereo not drawn)
25.1

Then this compound:
Short answer for "CS(=O)(=O)c1ccc(C2=NCc3c(Cl)cc(Cl)cc3-n3cccc32)cc1" : IC50 was 50.1

* * *

// reported hCYP2D6_AMMC_Pct_Inh for each item listed
target: CYP2D6 (Homo sapiens, UniProt P10635); test: Cytochrome P450 inhibition, Protocol A, cDNA expressed proteins, fluorogenic substrate; format: in vitro ADME; conditions: % inhibition at 10 μM; substrate AMMC; cDNA expressed protein
Sequence (P10635 whole entry): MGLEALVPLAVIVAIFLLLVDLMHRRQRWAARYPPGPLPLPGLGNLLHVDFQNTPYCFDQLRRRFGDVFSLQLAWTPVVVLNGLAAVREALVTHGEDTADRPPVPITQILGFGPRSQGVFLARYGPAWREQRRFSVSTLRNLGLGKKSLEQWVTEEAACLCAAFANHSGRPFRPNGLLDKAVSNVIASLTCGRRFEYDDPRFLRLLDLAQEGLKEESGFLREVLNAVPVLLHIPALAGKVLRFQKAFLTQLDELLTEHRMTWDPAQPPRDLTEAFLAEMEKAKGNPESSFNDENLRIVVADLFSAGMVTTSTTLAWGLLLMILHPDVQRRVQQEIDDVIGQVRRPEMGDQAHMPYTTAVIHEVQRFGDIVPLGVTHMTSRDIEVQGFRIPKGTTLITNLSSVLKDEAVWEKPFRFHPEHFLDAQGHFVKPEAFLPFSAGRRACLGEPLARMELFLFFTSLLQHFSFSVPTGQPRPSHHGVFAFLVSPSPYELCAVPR
The response must be a number in % with no trailing unit.

Consider the following illustrative entries.
CC(=O)c1cccc(C2=NCc3c(Cl)cccc3-n3cccc32)c1 [Compound 16]
55
CCc1ccc(C2NCc3c(Cl)cccc3-n3cccc32)cc1.Cl (centres unmarked)
96
CC(=O)c1ccc(C2=NCc3c(Cl)cccc3-n3cccc32)cc1 [drawing 88]
18
CS(=O)(=O)c1ccc(C2=NCc3c(Cl)cccc3-n3cccc32)cc1 [drawing 90]
5
CC(=O)c1ccc(C2=NCc3cccc(Cl)c3-n3cccc32)cc1 [Compound 15]
63

Short answer for CC(=O)c1ccc(C2=NCc3c(Cl)cc(Cl)cc3-n3cccc32)cc1 [Compound 22] : hCYP2D6_AMMC_Pct_Inh was 53

Short answer for CC(=O)c1ccc(C2NCc3c(Cl)cccc3-n3cccc32)cc1.Cl (centres unmarked) : hCYP2D6_AMMC_Pct_Inh was 53

* * *

assay: Liver metabolic stability assay, hLM; format: in vitro ADME, human; conditions: human liver microsomes, 1 mg protein/ml, 5 μM test compound, 15 min, 37 °C
PARAMETER: %-compound metabolised_Met_hLM (%)
The response must be a number in % with no trailing unit.

Consider the following illustrative entries.
CC(=O)c1ccc(C2=NCc3cc(Cl)cc(Cl)c3-n3cccc32)cc1
19
CC(=O)c1ccc(C2=NCc3c(F)cc(F)cc3-n3cccc32)cc1
20
CC(=O)c1ccc(C2NCc3c(Cl)cccc3-n3cccc32)cc1.Cl (stereo not drawn)
59
CC(=O)c1ccc(C2=NCc3c(Cl)cccc3-n3cccc32)cc1
50
CC(=O)c1ccc(C2=NCc3c(Cl)ccc(Cl)c3-n3cccc32)cc1
80

Short answer for "CS(=O)(=O)c1ccc(C2=NCc3c(Cl)cccc3-n3cccc32)cc1" : %-compound metabolised_Met_hLM was 2

Short answer for "CC(=O)c1ccc(C2=NCc3c(Cl)cc(Cl)cc3-n3cccc32)cc1" : %-compound metabolised_Met_hLM was 27

Short answer for CC(O)c1ccc(C2NCc3c(Cl)cccc3-n3cccc32)cc1 (stereo not drawn) : %-compound metabolised_Met_hLM was 43

Short answer for "CC(=O)c1cc(C2=NCc3c(Cl)cc(Cl)cc3-n3cccc32)ccc1F" : %-compound metabolised_Met_hLM was 22

Short answer for "CC(=O)c1cc(C2=NCc3c(Cl)cccc3-n3cccc32)ccc1F" : %-compound metabolised_Met_hLM was 36

Short answer for "CC(=O)c1ccc(C2=NCc3c(ccc(Cl)c3Cl)-n3cccc32)cc1.Cl" : %-compound metabolised_Met_hLM was 17

Short answer for "CC(=O)c1cccc(C2=NCc3c(Cl)cccc3-n3cccc32)c1" : %-compound metabolised_Met_hLM was 87

Short answer for "CC(=O)c1ccc(C2=NCc3ccc(Cl)cc3-n3cccc32)cc1" : %-compound metabolised_Met_hLM was 17

Short answer for "CC(=O)c1ccc(C2=NCc3c(F)cccc3-n3cccc32)cc1" : %-compound metabolised_Met_hLM was 26

Short answer for "CC(=O)c1ccc(C2=NCc3cccc(Cl)c3-n3cccc32)cc1" : %-compound metabolised_Met_hLM was 17

* * *

tested on: Aspergillus fumigatus B42928; assay: Antifungal activity in vitro (resazurin susceptibility screen), Inf. E; type: cell-based; conditions: Aspergillus fumigatus B42928; 27 °C, 48 hours, resa time 17 hours; read-out: Inf. E pIC50 (converted)
Sorting guide: entries reporting IC50 beneath 10 µM go in the 1 pile, the rest go in the -1 pile.

Some solved cases for reference:
CC(=O)c1ccc(C2NCc3c(Cl)cccc3-n3cccc32)cc1.Cl (stereo not drawn)
1
CC(=O)c1ccc(C2=NCc3c(F)cc(F)cc3-n3cccc32)cc1
1
CC(=O)c1cccc(C2NCc3c(Cl)cccc3-n3cccc32)c1 (stereo not drawn)
-1

Is it true that IC50 reported for "CS(=O)(=O)c1ccc(C2=NCc3c(F)cccc3-n3cccc32)cc1" is less than 10 µM?
-1

Is it true that IC50 reported for "CS(=O)(=O)c1ccc(C2=NCc3c(Cl)cc(Cl)cc3-n3cccc32)cc1" is less than 10 µM?
-1

Is it true that IC50 reported for "CC(=O)c1ccc(C2=NCc3ccc(Cl)cc3-n3cccc32)cc1" is less than 10 µM?
1

Is it true that IC50 reported for CC(=O)c1ccc(C2NCc3ccc(Cl)cc3-n3cccc32)cc1 (stereo not drawn) is less than 10 µM?
-1

Is it true that IC50 reported for "CC(=O)c1ccc(C2=NCc3c(Cl)cccc3-n3cccc32)cc1" is less than 10 µM?
-1

Is it true that IC50 reported for OCCc1ccc(C2NCc3c(Cl)cc(Cl)cc3-n3cccc32)cc1 (stereo not drawn) is less than 10 µM?
-1

* * *

biological target: CYP3A4 (Homo sapiens, UniProt P08684); assay: Cytochrome P450 inhibition, Protocol A, cDNA expressed proteins, fluorogenic substrates; assay type: in vitro ADME; details: % inhibition at 10 μM; substrate BFC; cDNA expressed protein
Sequence (P08684 whole entry): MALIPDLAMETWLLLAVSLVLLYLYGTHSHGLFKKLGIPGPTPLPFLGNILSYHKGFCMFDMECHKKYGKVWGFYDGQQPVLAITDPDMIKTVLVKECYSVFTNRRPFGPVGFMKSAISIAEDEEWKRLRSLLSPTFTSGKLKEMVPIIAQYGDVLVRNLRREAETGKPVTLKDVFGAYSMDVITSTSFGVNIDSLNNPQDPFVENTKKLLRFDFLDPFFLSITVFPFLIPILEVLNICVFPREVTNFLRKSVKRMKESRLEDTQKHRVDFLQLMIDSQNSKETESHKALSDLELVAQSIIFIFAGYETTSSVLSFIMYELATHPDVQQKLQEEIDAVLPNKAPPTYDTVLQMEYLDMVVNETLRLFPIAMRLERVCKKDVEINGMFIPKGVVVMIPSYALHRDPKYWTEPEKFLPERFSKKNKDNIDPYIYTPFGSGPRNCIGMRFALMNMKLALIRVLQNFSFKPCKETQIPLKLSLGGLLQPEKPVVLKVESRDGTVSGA
Binning of hCYP3A4_BFC_Pct_Inh into classes: LOW: < 5%; MEDIUM: ≥ 5% and < 40%; HIGH: ≥ 40%

Class (by measured hCYP3A4_BFC_Pct_Inh) for CC(=O)c1ccc(C2=NCc3c(Cl)ccc(Cl)c3-n3cccc32)cc1 [Compound 25]
MEDIUM

Class (by measured hCYP3A4_BFC_Pct_Inh) for CC(=O)c1ccc(C2=NCc3cccc(Cl)c3-n3cccc32)cc1 [Compound 15]
LOW

Class (by measured hCYP3A4_BFC_Pct_Inh) for CC(=O)c1ccc(C2=NCc3c(Cl)cccc3-n3cccc32)cc1 [drawing 88]
LOW

Class (by measured hCYP3A4_BFC_Pct_Inh) for "CCc1ccc(C2=NCc3ccc(Cl)cc3-n3cccc32)cc1"
HIGH

Class (by measured hCYP3A4_BFC_Pct_Inh) for CCc1ccc(C2=NCc3c(Cl)cccc3-n3cccc32)cc1 [drawing 89]
HIGH

Class (by measured hCYP3A4_BFC_Pct_Inh) for CCc1ccc(C2NCc3c(Cl)cccc3-n3cccc32)cc1.Cl (centres unmarked)
HIGH

Class (by measured hCYP3A4_BFC_Pct_Inh) for CC(=O)c1ccc(C2NCc3c(Cl)cccc3-n3cccc32)cc1.Cl (centres unmarked)
HIGH

* * *

system: Microsporum canis B68128; test: Antifungal activity in vitro (resazurin susceptibility screen), Inf. B; type: cell-based; details: Microsporum canis, B68128, Microsporum canis B68128; 27 °C, 9 days, resa time 24 hours; read-out: Inf. B pIC50 (converted)
PARAMETER: IC50 (nM)
The response must be a number in nM with no trailing unit.

Reading of IC50 for CC(=O)c1cc(C2=NCc3c(Cl)cccc3-n3cccc32)ccc1F [Compound 19] with Microsporum canis B68128: 1580

Reading of IC50 for CC(=O)c1cccc(C2NCc3c(Cl)cccc3-n3cccc32)c1 (stereo not drawn) [Compound 4] with Microsporum canis B68128: 10000

Reading of IC50 for CS(=O)(=O)c1ccc(C2=NCc3c(Cl)cc(Cl)cc3-n3cccc32)cc1 [Compound 30] with Microsporum canis B68128: 3980

Reading of IC50 for CC(=O)c1ccc(C2=NCc3cc(Cl)cc(Cl)c3-n3cccc32)cc1 [Compound 26] with Microsporum canis B68128: 631

Reading of IC50 for OCCc1ccc(C2NCc3c(Cl)cc(Cl)cc3-n3cccc32)cc1 (stereo not drawn) [Compound 34] with Microsporum canis B68128: 2000

The measured values listed here are drawn from patent US9040523B2.
